# ASSAY TEXT: Bemcentinib plasma PK (LC-MS/MS, population PK model)
# Type: in vivo, human
# RECORDED CONDITIONS: human, plasma, oral, 200 mg daily; LDAC cohort; read-out: median t1/2 (converted)
MEASUREMENT LABEL: half-life (h)

[[record]]
chemical_smiles = "Nc1nc(Nc2ccc3c(c2)CC[C@@H](N2CCCC2)CC3)nn1-c1cc2c(nn1)-c1ccccc1CCC2"
measured_value = 124


###

# ASSAY TEXT: Bemcentinib plasma PK (LC-MS/MS, population PK model)
# Type: in vivo, human
# RECORDED CONDITIONS: human, plasma, oral, 300 mg, DE cohort, maintenance 300 mg daily; read-out: AUC
MEASUREMENT LABEL: AUC (µg·h/mL)

[[record]]
molecule = "Nc1nc(Nc2ccc3c(c2)CC[C@@H](N2CCCC2)CC3)nn1-c1cc2c(nn1)-c1ccccc1CCC2 [Bemcentinib]"
measured_value = 9.39


###

# ASSAY TEXT: Bemcentinib plasma PK (LC-MS/MS, population PK model)
# Assay type: in vivo, human
# RECORDED CONDITIONS: human, plasma, oral, 100 mg, DE cohort, maintenance 100 mg daily, 10 patients; read-out: mean Cmax at steady state
# Method: Thereafter, a pre-dose sample was collected at all study visits ( > Cycle 3 up to and including Cycle 15) and at End of Study. PK samples were measured using a fully validated liquid chromatography with tandem mass spectrometry method for bemcentinib. […] The PopPK model was developed by evaluating various structural models including 1 compartment and 2 compartment models. […] Quantification of parameter uncertainty in the final model was assessed by nonparametric bootstrap analysis. […]
MEASUREMENT LABEL: Cmax (ng/mL)

[[record]]
chemical_smiles = "Nc1nc(Nc2ccc3c(c2)CC[C@@H](N2CCCC2)CC3)nn1-c1cc2c(nn1)-c1ccccc1CCC2"
measurement_label = "Cmax"
units_label = "ng/mL"
measured_value = 140


###

# ASSAY TEXT: Bemcentinib plasma PK (LC-MS/MS, population PK model)
# Type: in vivo, human
# RECORDED CONDITIONS: human, plasma, oral, 200 mg, DE cohort, maintenance 200 mg daily, 21 patients; read-out: mean Cmax at steady state
# Procedure: Thereafter, a pre-dose sample was collected at all study visits ( > Cycle 3 up to and including Cycle 15) and at End of Study. PK samples were measured using a fully validated liquid chromatography with tandem mass spectrometry method for bemcentinib. […] The PopPK model was developed by evaluating various structural models including 1 compartment and 2 compartment models. […] Quantification of parameter uncertainty in the final model was assessed by nonparametric bootstrap analysis. […]
MEASUREMENT LABEL: Cmax (ng/mL)

[[record]]
chemical_smiles = "Nc1nc(Nc2ccc3c(c2)CC[C@@H](N2CCCC2)CC3)nn1-c1cc2c(nn1)-c1ccccc1CCC2"
units_label = "ng/mL"
measured_value = 162


###

# ASSAY TEXT: Bemcentinib plasma PK (LC-MS/MS, population PK model)
# Type: in vivo, human
# RECORDED CONDITIONS: human, plasma, oral, 100 mg, DE cohort, maintenance 100 mg daily; read-out: AUC
MEASUREMENT LABEL: AUC (ng·h/mL)

[[record]]
chemical_smiles = "Nc1nc(Nc2ccc3c(c2)CC[C@@H](N2CCCC2)CC3)nn1-c1cc2c(nn1)-c1ccccc1CCC2"
measured_value = 3310


###

# ASSAY TEXT: Bemcentinib plasma PK (LC-MS/MS, population PK model)
# Type: in vivo, human
# RECORDED CONDITIONS: human, plasma, oral; DE cohort, maintenance 100 mg daily; read-out: median half-life (t1/2) (converted)
MEASUREMENT LABEL: half-life (h)

[[record]]
chemical_smiles = "Nc1nc(Nc2ccc3c(c2)CC[C@@H](N2CCCC2)CC3)nn1-c1cc2c(nn1)-c1ccccc1CCC2"
measurement_label = "half-life"
measured_value = 159


Source: paper PMC11930985
